testedSystem: KCC2 (Homo sapiens, UniProt Q9H2X9)
Sequence (Q9H2X9 whole entry, species assumed): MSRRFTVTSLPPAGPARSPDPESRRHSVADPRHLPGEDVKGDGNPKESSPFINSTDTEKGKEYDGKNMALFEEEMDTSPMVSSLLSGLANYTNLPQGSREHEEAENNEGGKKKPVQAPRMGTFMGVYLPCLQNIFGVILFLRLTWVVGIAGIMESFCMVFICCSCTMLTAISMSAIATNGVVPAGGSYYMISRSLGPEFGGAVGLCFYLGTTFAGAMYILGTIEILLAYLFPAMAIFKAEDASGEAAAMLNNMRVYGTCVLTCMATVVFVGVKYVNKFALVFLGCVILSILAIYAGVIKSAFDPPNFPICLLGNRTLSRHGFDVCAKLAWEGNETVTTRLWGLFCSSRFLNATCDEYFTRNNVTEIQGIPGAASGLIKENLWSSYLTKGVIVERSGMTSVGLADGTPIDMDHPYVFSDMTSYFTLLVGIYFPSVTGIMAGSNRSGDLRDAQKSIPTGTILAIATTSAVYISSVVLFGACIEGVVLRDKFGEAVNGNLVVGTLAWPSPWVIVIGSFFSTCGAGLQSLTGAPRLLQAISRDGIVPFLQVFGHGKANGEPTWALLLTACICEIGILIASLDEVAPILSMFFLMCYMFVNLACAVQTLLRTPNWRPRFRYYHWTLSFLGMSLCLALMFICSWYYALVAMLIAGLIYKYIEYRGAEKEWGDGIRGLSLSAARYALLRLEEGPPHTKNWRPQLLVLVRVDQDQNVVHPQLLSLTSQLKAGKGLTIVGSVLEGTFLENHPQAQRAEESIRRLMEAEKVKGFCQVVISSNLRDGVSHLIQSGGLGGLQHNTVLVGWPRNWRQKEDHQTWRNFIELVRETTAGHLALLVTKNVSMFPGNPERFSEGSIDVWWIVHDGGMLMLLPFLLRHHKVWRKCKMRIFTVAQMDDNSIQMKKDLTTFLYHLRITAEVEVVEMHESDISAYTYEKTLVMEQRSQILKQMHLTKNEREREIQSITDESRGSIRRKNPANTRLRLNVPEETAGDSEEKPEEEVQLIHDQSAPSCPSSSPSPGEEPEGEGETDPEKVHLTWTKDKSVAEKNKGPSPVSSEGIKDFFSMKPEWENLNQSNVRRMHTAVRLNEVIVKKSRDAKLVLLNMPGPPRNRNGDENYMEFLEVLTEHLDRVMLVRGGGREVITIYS
testProtocol: inhibitory activity measured in vitro on KCC2
Type: biochemical
conditionParameters: in vitro on KCC2; read-out: IC50
Field: pIC50. Provide a value for each of the compounds that follow.
One number for each entry, as −log10 of the molar value.

A selection of reference data follows.
[
  {
    "compound": "CC(=O)N1CCCC1(Cc1cccc(S(C)(=O)=O)c1)C(=O)OCc1ccccc1 (stereo not shown) [Compound 36]",
    "pIC50": 6.60
  },
  {
    "compound": "CC(=O)N1CCCC1(Cc1ccsc1)C(=O)OCc1ccccc1 (stereo not shown) [Compound 26]",
    "pIC50": 6.10
  },
  {
    "compound": "CCC(=O)N1CCCC1(Cc1ccccc1)C(=O)OCc1ccccc1 (stereo not shown) [Compound 60]",
    "pIC50": 5.92
  },
  {
    "compound": "CC(=O)N1CCCC1(Cc1ccccc1)C(=O)OCc1ccccc1 (stereo not shown) [Compound 66]",
    "pIC50": 4.70
  },
  {
    "compound": "CC(=O)N1CCCC1(CCc1ccccc1)C(=O)OCc1ccccc1 (stereo not shown) [Compound 22]",
    "pIC50": 5.10
  }
]

Would you mind giving pIC50 for every compound in the list below?
1. CC(=O)N1CCCC1(Cc1ccccc1)C(=O)CCc1ccccc1 (stereo not shown) [Compound 63]
2. CC(=O)N1CCCC1(Cc1ccncc1)C(=O)OCc1ccccc1 (stereo not shown) [Compound 25]
3. CC(=O)N1CCCC1(Cc1ccccc1)C(=O)OCc1cccc(Cl)c1 (stereo not shown) [Compound 50]
4. CCNC(=O)N1CCCC1(Cc1ccccc1)C(=O)OCc1ccccc1 (stereo not shown) [Compound 59]
5. CC(=O)N1CCCC1(Cc1ccccc1)C(=O)OCc1ccc(Cl)cc1 (stereo not shown) [Compound 51]

[6.52, 5.70, 5.60, 5.70, 5.89]

Would you mind giving pIC50 for every compound in the list below?
1. CC(=O)N1CCCC1(Cc1ccc(C)cc1)C(=O)OCc1ccccc1 (stereo not shown) [Compound 27]
2. CC(=O)N1CCCC1(Cc1ccccc1)C(=O)OCc1ccc(C)cc1 (stereo not shown) [Compound 52]
3. CC(=O)N1CCCC1(Cc1ccc(S(C)(=O)=O)cc1)C(=O)OCc1ccccc1 (stereo not shown) [Compound 32]
4. CC(=O)N1CCCC1(Cc1ccccc1)C(=O)OCC1CCCCC1 (stereo not shown) [Compound 47]

1: 6.10; 2: 6.10; 3: 6.00; 4: 4.20

Would you mind giving pIC50 for every compound in the list below?
1. CC(=O)N1CCCC1(Cc1ccc(F)c(C(F)(F)F)c1)C(=O)OCc1ccccc1 (stereo not shown) [Compound 38]
2. CC(=O)N1CCCC1(Cc1cccc(C(F)(F)F)c1)C(=O)OCc1ccccc1 (stereo not shown) [Compound 37]

[7.22, 7.10]

# compound CC(=O)N1CCCC1(Cc1ccccc1)C(=O)OCc1ccccc1Cl (stereo not shown) [Compound 49] ; its pIC50 = 5.22
